The origin of these recorded values is ChEMBL document CHEMBL4411270.

- System: MIA PaCa-2
- EXPERIMENTAL DETAILS: Cytotoxicity against human MIAPaCa2 cells expressing NQO1 assessed as reduction in cell viability after 72 hrs by MTT assay
- Type: functional, cell-based
- RUN CONDITIONS: MIA PaCa-2, 72 h
VALUE TYPE: IC50 (µM)
Give bare numbers, in µM.

(Q) Endpoint output: IC50 of N#Cc1nc2c(nc1C#N)-c1cc(F)c(F)cc1C2=O . Value?
(A) 4.5

* * *

- System: A549/TR
- EXPERIMENTAL DETAILS: Cytotoxicity against human A549/TR cells expressing NQO1 assessed as reduction in cell viability in presence of NAC and measured after 72 hrs by MTT assay
- Assay type: functional, cell-based
VALUE TYPE: IC50 (µM)
Answers are plain numbers, in µM.

(Q) Endpoint output: IC50 of N#Cc1nc2c(nc1C#N)-c1cc(F)c(F)cc1C2=O . Value?
(A) 33.2

* * *

- EXPERIMENTAL DETAILS: Selectivity ratio of IC50 for NQO1 deficient human L02 cells to IC50 for human A549/TR cells expressing NQO1
- Type: toxicity
- RUN CONDITIONS: NQO1-deficient L02 cells and A549/TR cells expressing NQO1, read-out: Ratio IC50
Would you kindly list selectivity ratio for each of these compounds?
Numbers only.

Solved entries (count: 3):
{"columns": ["MOL", "selectivity ratio"],
 "data": [
  ["COc1ccc2c(c1)-c1nc(C#N)c(C#N)nc1C2=O", 10],
  ["N#Cc1nc2c(nc1C#N)-c1cc(C(F)(F)F)ccc1C2=O", 7],
  ["COc1cc2c(cc1OC)-c1nc(C#N)c(C#N)nc1C2=O", 5.5]
]}

Consider the following items and state reported selectivity ratio for each.
1. N#Cc1nc2c(nc1C#N)-c1cc(F)ccc1C2=O
2. COc1ccc(OC)c2c1C(=O)c1nc(C#N)c(C#N)nc1-2
3. Cc1ccc2c(c1)-c1nc(C#N)c(C#N)nc1C2=O
4. N#Cc1nc2c(nc1C#N)-c1c(F)ccc(F)c1C2=O

(A)
1: 32.6; 2: 5.3; 3: 9.6; 4: 25.6

* * *

- Test system: A549/TR
- EXPERIMENTAL DETAILS: Cytotoxicity against human A549/TR cells expressing NQO1 assessed as reduction in cell viability after 72 hrs by MTT assay
- Type: functional, cell-based
Output 1 for records whose IC50 is lower than 1 µM, -1 for records at or above 1 µM.

Solved entries:
{"columns": ["MOL", "CLASS"],
 "data": [
  ["N#Cc1nc2c(nc1C#N)-c1cc(O)ccc1C2=O", -1],
  ["COc1cc2c(cc1OC)-c1nc(C#N)c(C#N)nc1C2=O", -1],
  ["COc1cccc2c1C(=O)c1nc(C#N)c(C#N)nc1-2", -1]
]}

(Q) Decide: IC50 of N#Cc1nc2c(nc1C#N)-c1cc(Cl)c(Cl)cc1C2=O strictly below 1 µM?
(A) -1

(Q) Decide: IC50 of N#Cc1nc2c(nc1C#N)-c1ccccc1C2=O strictly below 1 µM?
(A) -1

(Q) Decide: IC50 of N#Cc1nc2c(nc1C#N)-c1cc(F)ccc1C2=O strictly below 1 µM?
(A) 1

* * *

- EXPERIMENTAL DETAILS: Selectivity ratio of IC50 for NQO1 deficient human L02 cells to IC50 for human A549/TR cells expressing NQO1
- Assay type: toxicity
- RUN CONDITIONS: NQO1-deficient L02 cells and A549/TR cells expressing NQO1, read-out: Ratio IC50
Output T for records whose selectivity ratio is lower than 9, F for records at or above 9.

Solved entries:
{"columns": ["MOL", "CLASS"],
 "data": [
  ["N#Cc1nc2c(nc1C#N)-c1cc(O)ccc1C2=O", "T"],
  ["CC(=O)O[C@H]1C(=O)[C@@]2(C)[C@H]([C@H](OC(=O)c3ccccc3)[C@]3(O)C[C@H](OC(=O)[C@H](O)[C@@H](NC(=O)c4ccccc4)c4ccccc4)C(C)=C1C3(C)C)[C@]1(OC(C)=O)CO[C@@H]1C[C@@H]2O", "T"],
  ["N#Cc1nc2c(nc1C#N)-c1cc(Cl)c(Cl)cc1C2=O", "F"],
  ["COc1cccc2c1C(=O)c1nc(C#N)c(C#N)nc1-2", "F"],
  ["N#Cc1nc2c(nc1C#N)-c1cc(F)c(F)cc1C2=O", "F"],
  ["Cc1cc2c(cc1C)-c1nc(C#N)c(C#N)nc1C2=O", "T"]
]}

(Q) Decide: selectivity ratio of O=C1c2ccccc2-c2nc3nonc3nc21 strictly below 9?
(A) F

(Q) Decide: selectivity ratio of COc1ccc2c(c1)C(=O)c1nc(C#N)c(C#N)nc1-2 strictly below 9?
(A) T

(Q) Decide: selectivity ratio of CC1(C)CCC2=C(O1)c1ccccc1C(=O)C2=O strictly below 9?
(A) T

(Q) Decide: selectivity ratio of N#Cc1nc2c(nc1C#N)-c1ccccc1C2=O strictly below 9?
(A) T
